molecular target: full length human Androgen Receptor (AR) (Homo sapiens); construct: transiently transfected in T225 cm^2 flasks with a full length human Androgen Receptor (AR) cDNA; expressed in transfected cells; host or cells: CV-1 cells (ATCC CCL-70), transiently transfected with AR cDNA in pcDNA3 and ARE-luciferase in pGL3; assay: Androgen Receptor-Mediated Transcriptional Assay (ARE-luciferase reporter in transiently transfected CV-1 cells); type: cell-based; conditions: CV-1 cells transfected with human AR and ARE-luciferase; 16-18 hours incubation; luminescence; read-out: EC50 Values for Compounds 1-22 from Androgen Receptor-Mediated Transcriptional Assay
Classify: condition met when EC50 is strictly less than 20 nM; condition not met when EC50 is not.

input: Please check: EC50 for N#Cc1nccc2cc(N3[C@H](CCc4ccccc4)CNS3(=O)=O)ccc12 (single isomer, unassigned) , strictly under 20 nM or not?
output: condition not met

input: And the next one, CC1CCN(c2ccc3c(C#N)nccc3c2)S(=O)(=O)N1 (racemic) ?
output: condition met

input: What do we get for N#Cc1nccc2cc(N3[C@H](c4cccc(C(F)(F)F)c4)CNS3(=O)=O)ccc12 (single isomer, unassigned) ?
output: condition met

input: What about `C[C@@H]1CNS(=O)(=O)N(c2ccc3c(C#N)nccc3c2)C1` ?
output: condition met

input: How about this compound: N#Cc1nccc2cc(N3[C@@H](c4ccc(Cl)cc4)CNS3(=O)=O)ccc12 (single isomer, unassigned)
output: condition not met

* * *

Give EC50 for every item shown.
target: full length human Androgen Receptor (AR) (Homo sapiens, UniProt P10275); construct: transiently transfected in T225 cm^2 flasks with a full length human Androgen Receptor (AR) cDNA; expressed in transfected cells; host or cells: CV-1 cells (ATCC CCL-70), transiently transfected with AR cDNA in pcDNA3 and ARE-luciferase in pGL3; experiment: Androgen Receptor-Mediated Transcriptional Assay (ARE-luciferase reporter in transiently transfected CV-1 cells); format: cell-based
Sequence (P10275 whole entry): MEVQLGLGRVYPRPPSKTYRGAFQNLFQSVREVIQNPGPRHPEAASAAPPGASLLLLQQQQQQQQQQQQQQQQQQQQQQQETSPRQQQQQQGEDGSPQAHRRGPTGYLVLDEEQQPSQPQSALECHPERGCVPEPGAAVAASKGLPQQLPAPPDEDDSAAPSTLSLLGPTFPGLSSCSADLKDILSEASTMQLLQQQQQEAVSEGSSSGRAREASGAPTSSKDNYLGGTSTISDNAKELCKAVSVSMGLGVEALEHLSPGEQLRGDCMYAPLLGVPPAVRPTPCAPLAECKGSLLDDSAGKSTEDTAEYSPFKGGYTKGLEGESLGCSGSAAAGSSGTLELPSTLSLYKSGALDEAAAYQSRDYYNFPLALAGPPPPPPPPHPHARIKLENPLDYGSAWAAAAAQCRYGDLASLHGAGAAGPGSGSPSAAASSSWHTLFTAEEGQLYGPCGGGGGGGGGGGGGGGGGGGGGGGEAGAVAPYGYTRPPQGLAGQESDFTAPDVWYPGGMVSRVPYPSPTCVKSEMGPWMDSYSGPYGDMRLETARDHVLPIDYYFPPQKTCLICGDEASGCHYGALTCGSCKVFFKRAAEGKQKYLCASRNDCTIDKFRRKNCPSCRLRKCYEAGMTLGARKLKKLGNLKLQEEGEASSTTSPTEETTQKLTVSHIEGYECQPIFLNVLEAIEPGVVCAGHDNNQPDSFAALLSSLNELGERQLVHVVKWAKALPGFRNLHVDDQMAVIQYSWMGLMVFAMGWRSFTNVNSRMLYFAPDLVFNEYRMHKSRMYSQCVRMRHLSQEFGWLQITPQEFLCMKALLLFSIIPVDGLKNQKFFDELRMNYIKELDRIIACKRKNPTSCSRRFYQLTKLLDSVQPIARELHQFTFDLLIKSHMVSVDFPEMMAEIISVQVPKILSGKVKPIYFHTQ
Respond with the bare value in nM.

input: Requested read-out: EC50. Entry: N#Cc1nccc2cc(N3CCC[C@H]3[C@H](O)C(F)(F)F)ccc12 (single isomer, unassigned) [Compound 36]
output: 120

input: Check N#Cc1nccc2cc(N3CCCC[C@@H]3[C@H](O)C(F)(F)F)ccc12 (single isomer, unassigned) [Compound 29] too.
output: 0.02

input: Same question, C[C@H]([C@H](O)C(F)(F)F)N(C)c1ccc2c(C#N)nccc2c1 (single isomer, unassigned) [Compound 27] this time
output: 12.9

input: Same read-out for N#Cc1nccc2cc(N3CC4(CC4)CNS3(=O)=O)ccc12 [Compound 14] ?
output: 22
